TEST DESCRIPTION: Human HepG2 cell viability assay in 384 well format
Type: toxicity, cell-based
Design: dose 125 nL, time 70.5 hour; concentration not given beside the values
EXPERIMENTAL SETUP: HepG2 cells, read-out: Inhibition
Reported cytotoxicity at 70.5 h values follow for various molecules
MEASUREMENT NAME: cytotoxicity at 70.5 h (%)

>>> endpoint_value("OC(CNC1CCSCC1)c1cccc(OCc2ccccc2)c1 (configuration not stated)")
23.4
>>> endpoint_value("O=C(c1ccc[nH]1)N1CCc2c(COCC3CC3)cncc2C1")
-4.79
>>> endpoint_value("Cc1nc(CN2CCCC(N(C)Cc3nc(CC(C)C)no3)C2)no1 (configuration not stated)")
-9.14
>>> endpoint_value("COc1cccc(NC(=O)NCC(C)(O)CCSC)c1OC (configuration not stated)")
-8.28
>>> endpoint_value("COc1ccc(N2Cc3nc(N4CCCC4)ncc3C2=O)cc1Cl")
1.18
>>> endpoint_value("Cc1cccc(CN(C(=O)CCn2cncn2)C(C)C)c1")
-9.18
>>> endpoint_value("COC(=O)CN(C)Cc1cc(Br)cs1")
38.2
>>> endpoint_value("O=C(Cc1c[nH]c(=O)[nH]c1=O)N1CCC2(CCC(=O)N(C3CC3)C2)CC1")
0.183
>>> endpoint_value("Cc1ccccc1N1CCN(C(=O)c2ncc(F)cc2F)C(C)C1 (configuration not stated)")
-3.38
>>> endpoint_value("CC(C)n1ncc2c1NC(=O)CC21C(=O)Nc2c(Cl)cc(Cl)cc21 (configuration not stated)")
-8.73
>>> endpoint_value("O=C(CNCc1ccccc1Cn1cccn1)Nc1cnccn1")
-9.54
>>> endpoint_value("CC(Cc1cccc(Cl)c1)NC(=O)NCc1ncnn1C (configuration not stated)")
11.1

====

TEST DESCRIPTION: Human HepG2 cell viability assay in 384 well format
Type: toxicity, cell-based
Parameters: dose 125 nL, time 70.5 hour; concentration not given beside the values
EXPERIMENTAL SETUP: HepG2 cells, read-out: Inhibition
MEASUREMENT NAME: cytotoxicity at 70.5 h (%)

>>> endpoint_value("CCc1ccc2c(C3CN(C(C)=O)C3)ncn2c1")
-3.55
>>> endpoint_value("Cc1nc(C)n(CC2CN(Cc3cccnc3)Cc3nccn3C2)n1 (stereo unspecified)")
-1.38
>>> endpoint_value("COCCNC(=O)[C@@H](C)[C@@H]1CCc2c(C)cc(OCC(=O)O)c(C)c2C1")
-6
>>> endpoint_value("CC(NCc1ccc(OCC(N)=O)cc1)c1ccc(Cl)cc1Cl (stereo unspecified)")
-5.48
>>> endpoint_value("O=C(c1ccc(-c2cn[nH]c2)nc1)N1CCC(N2CCOCC2)CC1")
-3.67
>>> endpoint_value("O=C(Nc1ccccc1)C1CN(Cc2nccs2)CC12CCOCC2 (stereo unspecified)")
10
>>> endpoint_value("CNc1cncc(C2CCCN2S(=O)(=O)c2ccc(F)cc2)n1 (stereo unspecified)")
-2.18
>>> endpoint_value("Cc1cccc(N(CC(=O)N2CCCCC2)Cc2ccno2)c1")
-5.71
>>> endpoint_value("CC(C)c1cc(C(=O)NCCc2nc(-c3ccncc3)n[nH]2)[nH]n1")
-5.69
>>> endpoint_value("Cc1noc(CCNS(=O)(=O)N2CCCC2c2ccc(C)o2)n1 (stereo unspecified)")
9.73
>>> endpoint_value("CN(C)CCN1Cc2ncn(C)c2C(COCC(=O)N(C)C)C1 (stereo unspecified)")
-8.47

====

Reported cytotoxicity at 70.5 h values follow for various compounds
TEST DESCRIPTION: Human HepG2 cell viability assay in 384 well format
Format: toxicity, cell-based
Parameters: dose 125 nL, time 70.5 hour; concentration not given beside the values
EXPERIMENTAL SETUP: HepG2 cells, read-out: Inhibition
MEASUREMENT NAME: cytotoxicity at 70.5 h

>>> endpoint_value("COc1ccc(F)cc1S(=O)(=O)N1CCC(OC)CC1")
"-2.88%"
>>> endpoint_value("Cc1nn(C)cc1NC(=O)CN1CCC(Oc2cnccn2)CC1")
"-4.13%"
>>> endpoint_value("CCN1CC(CN(C)Cc2nc(-c3ccc(F)cc3F)oc2C)CC1=O (stereo unspecified)")
"2.47%"
>>> endpoint_value("CC(=O)N1C[C@H]2CNC[C@@]2(C(=O)NCCNc2ccncc2C)C1")
"-0.521%"
>>> endpoint_value("Cc1nnc(NC(=O)NCc2ccc(OC3CCCC3)nc2)s1")
"1.95%"
>>> endpoint_value("Cc1cc(NC(=O)CN2CCCC2Cn2nc(C)nc2C)n(C)n1 (stereo unspecified)")
"-14.8%"

====

Reported cytotoxicity at 70.5 h values follow for various compounds
TEST DESCRIPTION: Human HepG2 cell viability assay in 384 well format
Format: toxicity, cell-based
Parameters: dose 125 nL, time 70.5 hour; concentration not given beside the values
EXPERIMENTAL SETUP: HepG2 cells, read-out: Inhibition
MEASUREMENT NAME: cytotoxicity at 70.5 h

>>> endpoint_value("CN(C)S(=O)(=O)N1C[C@H]2CCC[C@@]2(COCc2cccnc2)C1")
"-6.86%"
>>> endpoint_value("CC(C)[C@H](NC(=O)Cn1nc2c(cc1=O)CCCC2)C(=O)O")
"-4.44%"
>>> endpoint_value("O=C(NCCC1=CCCCC1)c1ccc(-n2cccc2)nc1")
"-3.84%"
>>> endpoint_value("CC(C)CNC(=O)[C@H]1CCS(=O)(=O)[C@@H]2CN(Cc3ccc(F)cc3)C[C@H]12")
"-10.2%"
>>> endpoint_value("CC(C)C1CN(c2cnccn2)CCC(=O)N1Cc1ccc(F)cc1 (stereo not given)")
"-0.619%"
>>> endpoint_value("Cc1ccc(C(C(=O)NCc2cc(C)[nH]n2)N(C)C)cc1 (stereo not given)")
"-8.58%"
>>> endpoint_value("Cc1cccc(CN2C[C@@H]3CC[C@H](C2)N(Cc2c(C)noc2C)C3=O)n1")
"-3.2%"
>>> endpoint_value("CC[C@H]1CN(C(=O)c2cnc(N3CCN(C)CC3)nc2C)CC[C@@]1(C)O")
"-7.86%"
>>> endpoint_value("CCCC(=O)N(CC)C(c1cccnc1)c1ccc2c(c1)CCO2 (stereo not given)")
"-4.67%"
>>> endpoint_value("CC(c1ccccc1)N(C)C(=O)CN1CCCc2cc(F)cc(F)c21 (stereo not given)")
"12.8%"

====

TEST DESCRIPTION: Human HepG2 cell viability assay in 384 well format
Type: toxicity, cell-based
Design: dose 125 nL, time 70.5 hour; concentration not given beside the values
EXPERIMENTAL SETUP: HepG2 cells, read-out: Inhibition
MEASUREMENT NAME: cytotoxicity at 70.5 h (%)

>>> endpoint_value("Cc1ccc(N2CC[C@@H]3[C@@H]2CCN3C(=O)Cc2ccsc2)nn1")
-4.23
>>> endpoint_value("CCOCCN1CCCC(c2cc(C(N)=O)[nH]n2)C1 (centres undefined)")
-13.1
>>> endpoint_value("CCc1nnsc1C(=O)N1CCCN(Cc2nccn2C)CC1")
-21.7
>>> endpoint_value("CN1CCN(Cc2cnn(-c3ccccc3Cl)c2)[C@H]2CS(=O)(=O)C[C@H]21")
-5.22
>>> endpoint_value("CN1CCN(Cc2ccccc2CNC(=O)c2ccc(Br)cc2)CC1")
-7.15
>>> endpoint_value("CC(=O)c1nn(-c2ccccc2Cl)c(C)c1C(C)=O")
-10.3
>>> endpoint_value("CNc1nc2c(c(C(=O)N3CCCC3)n1)CN(Cc1cc(C)no1)CC2")
10.8
>>> endpoint_value("CC(O)CN1CCC(CNCc2ccc(C(N)=O)cc2)CC1 (centres undefined)")
-0.474
>>> endpoint_value("CC(C)(NC(=O)Cc1ccccc1F)C(C)(C)C(=O)O")
-0.854
>>> endpoint_value("COC(=O)COn1c(SCC(=O)OC)nc2ccccc2c1=O")
-6.15
>>> endpoint_value("CCN(CC)CCCNC(=O)c1nn(CC)cc1Cl")
2.52
>>> endpoint_value("CC(C)C(=O)N1CCC(c2c(C(N)=O)sc3ccccc23)C1 (centres undefined)")
18.5
>>> endpoint_value("O=c1nc(SCc2ccncc2)c2c(n1CCO)CCCC2")
14.9
>>> endpoint_value("COCCn1cc(C(=O)N2CCCC2c2cc(C)no2)ccc1=O (centres undefined)")
-11.6
>>> endpoint_value("CC(Cn1ccnc1)NC(=O)NCc1ccccn1 (centres undefined)")
-15.6
>>> endpoint_value("CC(C)C1CN(C(=O)c2ccn(C)c(=O)c2)c2ccccc2N1 (centres undefined)")
-0.488
>>> endpoint_value("CC(C)C1CCCN1CCCc1nc(-c2cccs2)no1 (centres undefined)")
2.81
>>> endpoint_value("CC1CCC(NS(=O)(=O)CC(=O)NC2(C(N)=O)CCCC2)CC1 (centres undefined)")
-7.07
>>> endpoint_value("NC(=O)C1CCN(CCCc2ccc(C(F)(F)F)cc2)CC1")
3.34
>>> endpoint_value("CNC(=O)c1ccc(NC2CCN(CC(F)(F)F)C2=O)cc1Cl (centres undefined)")
-7.41
>>> endpoint_value("Cc1nn(C)c2c(=O)n(Cc3ccccc3)nnc12")
-13.5
>>> endpoint_value("CCN(C)c1ccc(CNS(=O)(=O)CC2CCCO2)cc1F (centres undefined)")
-16
>>> endpoint_value("Cn1ncc2c(N3CCCC4(CCNC4)C3)nc(C(C)(C)C)nc21 (centres undefined)")
-11.5
>>> endpoint_value("Cc1ccnc(NCCSc2nccn2C)n1")
-5.33
